Quick reference for TD50 among some molecules
experiment: Neurological toxicity was determined using horizontal screen test in mice after intraperitoneal administration; format: organism-based; details: mouse, in vivo, ip

Below: 5 molecules and their reported TD50.
[
  {
    "molecule": "CC(=O)NC(C(=O)NCc1ccccc1)c1cccs1 (stereo unspecified)",
    "TD50": "> 30 mg/kg"
  },
  {
    "molecule": "CC(=O)NC(C(=O)NCc1ccccc1)c1c[nH]c2ccccc12 (stereo unspecified)",
    "TD50": "< 300 mg/kg"
  },
  {
    "molecule": "CC(=O)NC(C(=O)NCc1ccccc1)c1ccccc1 (stereo unspecified)",
    "TD50": "> 40 mg/kg"
  },
  {
    "molecule": "CC(=O)N[C@H](C(=O)NCc1ccccc1)c1ccccc1",
    "TD50": "> 100 mg/kg"
  },
  {
    "molecule": "CC(=O)N[C@H](C(=O)NCc1ccccc1)c1ccco1",
    "TD50": "> 200 mg/kg"
  }
]

Answer with reported TD50 of CC(=O)NC(C(=O)NCc1ccccc1)c1ccsc1 (stereo unspecified)
> 100 mg/kg

Answer with reported TD50 of CC(=O)N[C@@H](C)C(=O)NCc1ccccc1
841 mg/kg

Answer with reported TD50 of CC(=O)N[C@@H](C(=O)NCc1ccccc1)c1ccccc1
> 80 mg/kg

Answer with reported TD50 of CC(=O)NC(C(=O)NCc1ccccc1)c1ccc(C)o1 (stereo unspecified)
75.4 mg/kg

Answer with reported TD50 of CC(=O)N[C@H](C)C(=O)NCc1ccccc1
214 mg/kg

Answer with reported TD50 of CC(=O)NC(C(=O)NCc1cccc(F)c1)c1ccco1 (stereo unspecified)
136 mg/kg

Answer with reported TD50 of CC(=O)NC(C(=O)NCc1ccccc1)c1ccc2ccccc2c1 (stereo unspecified)
> 300 mg/kg

Answer with reported TD50 of CC(=O)NC(C(=O)NCc1ccc(F)cc1)c1ccco1 (stereo unspecified)
144 mg/kg

Answer with reported TD50 of CC(=O)N[C@@H](C(=O)NCc1ccccc1)c1ccco1
23.8 mg/kg

Answer with reported TD50 of CC(=O)NC(C(=O)NCc1ccccc1)c1ccc[nH]1 (stereo unspecified)
> 30 mg/kg

Answer with reported TD50 of CC(=O)NC(C(=O)NCc1ccccc1)c1ccco1 (stereo unspecified)
~40 mg/kg

---

Quick reference for TD50 among some compounds
experiment: Neurological toxicity was determined using horizontal screen test in mice after intraperitoneal administration; Range is >100 to <300; type: organism-based; conditions: mouse, in vivo, ip

[
  {
    "compound": "CC(=O)NC(C(=O)NCc1ccccc1)c1cc2ccccc2s1 (configuration not stated)",
    "TD50": "> 100 mg/kg"
  }
]

Kindly consider the entry below.
Answer with reported TD50 of CC(=O)NC(C(=O)NCc1ccccc1)c1cc2ccccc2o1 (configuration not stated)
> 100 mg/kg
